System: CaEs-17
ASSAY DETAILS: Solid tumor cell growth inhibition, MTT, 72 h
Assay type: cell-based
EXPERIMENTAL SETUP: Homo sapiens, CaEs17
REPORTED METRIC: IC50 (µg/mL)

molecule="C=C1C(=O)[C@]23[C@H](OC(=O)c4cccc(C)c4)[C@H]1CC[C@H]2[C@@]12CO[C@@]3(O)[C@@H](O)[C@@H]1C(C)(C)CCC2=O [BS-OR-008]" assayed_target=CaEs-17 result=1.22
molecule="C=C1C(=O)[C@]23[C@H](OC(=O)c4ccccc4Br)[C@H]1CC[C@H]2[C@@]12CO[C@@]3(O)[C@@H](O)[C@@H]1C(C)(C)CCC2=O [BS-OR-020]" assayed_target=CaEs-17 result=1.78
molecule="C=C1C(=O)[C@]23[C@H](OC(=O)/C=C/c4ccccc4)[C@H]1CC[C@H]2[C@@]12CO[C@@]3(O)[C@@H](O)[C@@H]1C(C)(C)CC[C@@H]2OC(C)=O [BS-OR-094]" assayed_target=CaEs-17 result=0.94
molecule="C=C1C(=O)[C@]23[C@H](OC(=O)c4ccc(OC)c(OC)c4)[C@H]1CC[C@H]2[C@@]12CO[C@@]3(O)[C@@H](O)[C@@H]1C(C)(C)CCC2=O [BS-OR-015]" assayed_target=CaEs-17 result=0.95
molecule="C=C1C(=O)[C@]23[C@H](OC(=O)C4CCN(S(=O)(=O)CC)CC4)[C@H]1CC[C@H]2[C@@]12CO[C@@]3(O)[C@@H](O)[C@@H]1C(C)(C)CCC2=O [BS-OR-038]" assayed_target=CaEs-17 result=2.18

P. C=C1C(=O)[C@]23[C@H](O)[C@H]1CC[C@H]2[C@@]12CO[C@]3(O)[C@@H](O)[C@@H]1C(C)(C)CC[C@@H]2O [OR, Oridonin]
Q. C=C1C(=O)[C@]23[C@H](OC(=O)c4ccc(OC)cc4)[C@H]1CC[C@H]2[C@@]12CO[C@@]3(O)[C@@H](O)[C@@H]1C(C)(C)CCC2OC(C)=O (some centres unmarked) [BS-OR-091]
Hi, I'm comparing two records. Which one has the lower IC50, P or Q ? Identify your pick by its label.
Q

====

Tested on: RKO
ASSAY DETAILS: Solid tumor cell growth inhibition, MTT, 72 h
Assay type: cell-based
EXPERIMENTAL SETUP: Homo sapiens
REPORTED METRIC: IC50 (µg/mL)

Use these answered entries as a reference point.
molecule=C=C1C(=O)[C@]23[C@H](OC(=O)c4ccccc4Br)[C@H]1CC[C@H]2[C@@]12CO[C@@]3(O)[C@@H](O)[C@@H]1C(C)(C)CCC2=O result=0.84
molecule=C=C1C(=O)[C@]23[C@H](OC(=O)c4ccccc4Cl)[C@H]1CC[C@H]2[C@@]12CO[C@@]3(O)[C@@H](O)[C@@H]1C(C)(C)CCC2=O result=0.66
molecule="C=C1C(=O)[C@]23[C@H](OC(=O)c4ccc(C)cc4)[C@H]1CC[C@H]2[C@@]12CO[C@@]3(O)[C@@H](O)[C@@H]1C(C)(C)CCC2OC(C)=O (some centres unmarked)" result=0.35

I. C=C1C(=O)[C@]23[C@H](OC(=O)c4ccc(OC)cc4)[C@H]1CC[C@H]2[C@@]12CO[C@@]3(O)[C@@H](O)[C@@H]1C(C)(C)CCC2=O
II. C=C1C(=O)[C@]23[C@H](OC(=O)C4CCC(NC(=O)c5ccccn5)CC4)[C@H]1CC[C@H]2[C@@]12CO[C@@]3(O)[C@@H](O)[C@@H]1C(C)(C)CCC2=O (some centres unmarked)
Hi, I'm comparing two records. Which one has the lower IC50, I or II ? Identify your pick by its label.
I
